All values here come from the supplement of paper PMC6757056.

B1: library; a variant is named by its letters at N, in order (parent)
chain: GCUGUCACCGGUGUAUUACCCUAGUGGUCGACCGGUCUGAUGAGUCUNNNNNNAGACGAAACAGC

variants of: B1; experiment: normalized RNA/DNA level without ligand (relative to sTRSVctl = 100) (log10 (% of sTRSVctl)); ligand: hypoxanthine (xanthine aptamer); higher = less ribozyme self-cleavage, higher mRNA level; conditions: HEK293T, reporter: mCherry (pCS4076), ligand present: no
// normalized RNA/DNA level without ligand (log10) lookup, one value per entry
# respond with the number and nothing more

Take a look at these entries with their results.
{"columns": ["RESIDUE_CHANGE", "NUMBER"],
 "data": [
  ["CGCAGG", 1.35],
  ["CUCCGC", 1.95]
]}

Tell me normalized RNA/DNA level without ligand (log10) reported for AUCGCU
1.84

Tell me normalized RNA/DNA level without ligand (log10) reported for UCAAAU
1.77

Tell me normalized RNA/DNA level without ligand (log10) reported for UGUUAC
1.84
